In this section, each of the molecules is paired with its reported MIC.
# Tested on: Staphylococcus aureus
# procedure_details: Antibacterial activity against methicillin-sensitive Staphylococcus aureus 15-2 incubated for 16 to 18 hrs by CLSI based broth dilution method
# Format: functional
# details: time 16-18 hrs

{"molecule": "C[C@H]1COc2c(N3CCN(C)CC3)c(F)cc3c(=O)c(C(=O)O)cn1c23 [LEVOFLOXACIN ANHYDROUS]", "target_desc": "Staphylococcus aureus", "readout_units": "µg/mL", "limit_operator": "=", "MIC": 64}
{"molecule": "COc1cc(Cc2cnc(N)nc2N)cc(OC)c1OC [TRIMETHOPRIM]", "target_desc": "Staphylococcus aureus", "readout_units": "µg/mL", "limit_operator": "=", "MIC": 0.25}
{"molecule": "Nc1nc(N)c2c(ccc3c2ccn3Cc2nc3ccccc3s2)n1", "target_desc": "Staphylococcus aureus", "readout_units": "µg/mL", "limit_operator": "≤", "MIC": 0.03}
{"molecule": "Nc1nc(N)c2c(ccc3c2ccn3Cc2cccc3cccnc23)n1", "target_desc": "Staphylococcus aureus", "readout_units": "µg/mL", "limit_operator": "≤", "MIC": 0.03}
{"molecule": "Nc1nc(N)c2c(ccc3c2ccn3Cc2cccc3ccccc23)n1", "target_desc": "Staphylococcus aureus", "readout_units": "µg/mL", "limit_operator": "≤", "MIC": 0.03}

----------
Listed next: entries and their corresponding MIC.
# Test system: Escherichia coli
# procedure_details: Antibacterial activity against Escherichia coli ATCC 25922 incubated for 16 to 18 hrs in absence of human plasma by CLSI based broth dilution method
# Format: functional
# details: time 16-18 hrs

{"compound": "Nc1nc(N)c2c(ccc3c2ccn3Cc2cccc3scnc23)n1", "MIC [µg/mL]": 0.03}
{"compound": "Nc1nc(N)c2c(ccc3c2ccn3Cc2nc3ccccc3s2)n1", "MIC [µg/mL]": 0.03}
{"compound": "Nc1nc(N)c2c(ccc3c2ccn3Cc2ccc3scnc3c2)n1", "MIC [µg/mL]": 0.06}
{"compound": "COc1cc(Cc2cnc(N)nc2N)cc(OC)c1OC [TRIMETHOPRIM]", "MIC [µg/mL]": 0.5}

----------
# System: Staphylococcus aureus
# procedure_details: Antibacterial activity against methicillin-resistant Staphylococcus aureus ATCC 43300 incubated for 16 to 18 hrs in absence of human plasma by CLSI based broth dilution method
# Type: functional
# details: time 16-18 hrs

{"compound": "Nc1nc(N)c2c(ccc3c2ccn3Cc2cccc3scnc23)n1", "readout_units": "µg/mL", "limit_operator": "≤", "MIC": 0.004}
{"compound": "Nc1nc(N)c2c(ccc3c2ccn3Cc2nc3ccccc3s2)n1", "readout_units": "µg/mL", "limit_operator": "=", "MIC": 0.016}
{"compound": "COc1cc(Cc2cnc(N)nc2N)cc(OC)c1OC [TRIMETHOPRIM]", "readout_units": "µg/mL", "limit_operator": "=", "MIC": 0.5}
{"compound": "Nc1nc(N)c2c(ccc3c2ccn3Cc2ccc3scnc3c2)n1", "readout_units": "µg/mL", "limit_operator": "=", "MIC": 0.016}

----------
# procedure_details: Stability in mouse plasma assessed as parent compound remaining at 1 ug/ml measured after 20 mins by LC-MS/MS analysis
# Assay type: ADME, cell-free
# details: at 1 µg/mL, read-out: Stability
quantity_measured: remaining at 20 min, 1 ug/ml (%)

{"smiles_string": "Cc1cc2c3c(N)nc(N)nc3ccc2n1Cc1nc2ccccc2s1", "quantity_measured": "remaining at 20 min, 1 ug/ml", "result": 99.3}
{"smiles_string": "Nc1nc(N)c2c(ccc3c2ccn3Cc2ccc3scnc3c2)n1", "quantity_measured": "remaining at 20 min, 1 ug/ml", "result": 94.7}

----------
Listed here: items and their measured MIC.
# Test system: Staphylococcus aureus
# procedure_details: Antibacterial activity against Staphylococcus aureus ATCC 29213 incubated for 16 to 18 hrs by CLSI based broth dilution method
# Type: functional
# details: time 16-18 hrs

{"compound": "Nc1nc(N)c2c(ccc3c2ccn3Cc2ccc(-c3ccccc3)cc2)n1", "readout_units": "µg/mL", "limit_operator": "=", "MIC": 1}
{"compound": "Nc1nc(N)c2c(ccc3c2ccn3Cc2cccc3ccccc23)n1", "readout_units": "µg/mL", "limit_operator": "=", "MIC": 0.125}
{"compound": "Nc1nc(N)c2c(ccc3c2ccn3Cc2ccc3occc3c2)n1", "readout_units": "µg/mL", "limit_operator": "=", "MIC": 0.06}
{"compound": "Cc1cc2c3c(N)nc(N)nc3ccc2n1Cc1nc2ccccc2s1", "readout_units": "µg/mL", "limit_operator": "=", "MIC": 0.5}
{"compound": "COc1ccc2nc(Cn3ccc4c5c(N)nc(N)nc5ccc43)sc2c1", "readout_units": "µg/mL", "limit_operator": "=", "MIC": 0.5}
{"compound": "COc1cc(Cc2cnc(N)nc2N)c2c(c1OC)OC(C1CC1)C=C2 (stereo unspecified)", "readout_units": "µg/mL", "limit_operator": "=", "MIC": 0.06}
{"compound": "COC(=O)c1ccc(Cn2ccc3c4c(N)nc(N)nc4ccc32)c2ccccc12", "readout_units": "µg/mL", "limit_operator": "=", "MIC": 0.004}
{"compound": "Nc1nc(N)c2c(ccc3c2ccn3Cc2ccc3scnc3c2)n1", "readout_units": "µg/mL", "limit_operator": "=", "MIC": 0.125}
{"compound": "Nc1nc(N)c2c(ccc3c2ccn3Cc2ccc(C(=O)O)c3ccccc23)n1", "readout_units": "µg/mL", "limit_operator": "=", "MIC": 2}
{"compound": "Nc1nc(N)c2c(ccc3c2cc(-c2ccccc2)n3Cc2nc3ccccc3s2)n1", "readout_units": "µg/mL", "limit_operator": ">", "MIC": 128}
{"compound": "Nc1nc(N)c2c(ccc3c2ccn3Cc2ccc3sc(N)nc3c2)n1", "readout_units": "µg/mL", "limit_operator": ">", "MIC": 8}

----------
# procedure_details: Stability in mouse plasma assessed as parent compound remaining at 5 ug/ml measured after 30 mins by LC-MS/MS analysis
# Assay type: ADME, cell-free
# details: at 5 µg/mL, read-out: Stability
Listed below: remaining at 0.5 h, 5 ug/ml values for each entry.
quantity_measured: remaining at 0.5 h, 5 ug/ml (%)

{"smiles_string": "Cc1cc2c3c(N)nc(N)nc3ccc2n1Cc1nc2ccccc2s1", "result": 98.3}
{"smiles_string": "Nc1nc(N)c2c(ccc3c2ccn3Cc2ccc3scnc3c2)n1", "result": 95.8}

----------
Items are presented alongside their recorded MIC.
# System: Staphylococcus aureus
# procedure_details: Antibacterial activity against Staphylococcus aureus ATCC 29213 incubated for 16 to 18 hrs in absence of human plasma by CLSI based broth dilution method
# Type: functional
# details: time 16-18 hrs
quantity_measured: MIC (µg/mL)

{"compound": "Nc1nc(N)c2c(ccc3c2ccn3Cc2ccc3scnc3c2)n1", "quantity_measured": "MIC", "result": 0.03}
{"compound": "Nc1nc(N)c2c(ccc3c2ccn3Cc2nc3ccccc3s2)n1", "quantity_measured": "MIC", "result": 0.06}
{"compound": "Nc1nc(N)c2c(ccc3c2ccn3Cc2cccc3scnc23)n1", "quantity_measured": "MIC", "result": 0.008}
{"compound": "COc1cc(Cc2cnc(N)nc2N)cc(OC)c1OC [TRIMETHOPRIM]", "quantity_measured": "MIC", "result": 1}

----------
# procedure_details: Tmax in ICR mouse at 10 mg/kg, ip measured after 5 to 24 hrs post administration by LC-MS/MS analysis
# Type: ADME, organism-based
# details: in vivo, time 5-24 hrs
quantity_measured: Tmax (min)

{"smiles_string": "Cc1cc2c3c(N)nc(N)nc3ccc2n1Cc1nc2ccccc2s1", "quantity_measured": "Tmax", "readout_units": "min", "result": 49.8}

----------
# procedure_details: Stability in mouse plasma assessed as parent compound remaining at 5 ug/ml measured after 120 mins by LC-MS/MS analysis
# Format: ADME, cell-free
# details: at 5 µg/mL, read-out: Stability
quantity_measured: remaining at 2 h, 5 ug/ml (%)

{"smiles_string": "Cc1cc2c3c(N)nc(N)nc3ccc2n1Cc1nc2ccccc2s1", "readout_units": "%", "result": 97.3}
{"smiles_string": "Nc1nc(N)c2c(ccc3c2ccn3Cc2ccc3scnc3c2)n1", "readout_units": "%", "result": 95.5}

----------
# Tested on: Enterococcus faecalis
# procedure_details: Antibacterial activity against Enterococcus faecalis EFA19-2 incubated for 16 to 18 hrs by CLSI based broth dilution method
# Type: functional
# details: time 16-18 hrs
quantity_measured: MIC (µg/mL)

{"compound": "Nc1nc(N)c2c(ccc3c2ccn3Cc2cccc3ccccc23)n1", "limit_operator": "≤", "result": 0.03}
{"compound": "COc1cc(Cc2cnc(N)nc2N)cc(OC)c1OC", "limit_operator": "=", "result": 0.5}
{"compound": "C[C@H]1COc2c(N3CCN(C)CC3)c(F)cc3c(=O)c(C(=O)O)cn1c23 [LEVOFLOXACIN ANHYDROUS]", "limit_operator": "=", "result": 2}
{"compound": "Nc1nc(N)c2c(ccc3c2ccn3Cc2nc3ccccc3s2)n1", "limit_operator": "≤", "result": 0.03}
{"compound": "Nc1nc(N)c2c(ccc3c2ccn3Cc2cccc3cccnc23)n1", "limit_operator": "≤", "result": 0.03}
